ASSAY METHOD TEXT: Solubility of poorly water-soluble natural polyphenolic compound (PSNPPC) in water
Format: physicochemical
EXPERIMENTAL CONDITIONS: PSNPPC alone; solubility = amount (mg) of solute that dissolves in 1 mL of water at 37° C.
solubility values, listed per item
Just the number please, in µg/mL, no unit attached.

Oc1ccc(C=Cc2cc(O)cc(O)c2)cc1 ... 87

Please look at the following compound next.
Return reported solubility; argument: COc1cc(/C=C/C(=O)CC(=O)/C=C/c2ccc(O)c(OC)c2)ccc1O
4
